- System: HeLa Kyoto
- assay.remarks: thermal stability score vs G1/S (z-score of summed log2 fold changes over temperatures); higher = more thermally stable than in G1/S
- experimental.conditions: cell cycle stage: early G1 (4.5 h after nocodazole release)
measured.parameter: thermal stability score
No unit in the answer, please; the number alone is enough.

entry.sequence	thermal stability score
MGAAHSASEEVRELEGKTGFSSDQIEQLHRRFKQLSGDQPTIRKENFNNVPDLELNPIRSKIVRAFFDNRNLRKGPSGLADEINFEDFLTIMSYFRPIDTTMDEEQVELSRKEKLRFLFHMYDSDSDGRITLEEYRNVVEELLSGNPHIEKESARSIADGAMMEAASVCMGQMEPDQVYEGITFEDFLKIWQGIDIETKMHVRFLNMETMALCH [TESC]	0.145
MSTEGGGRRCQAQVSRRISFSASHRLYSKFLSDEENLKLFGKCNNPNGHGHNYKVVVTVHGEIDPATGMVMNLADLKKYMEEAIMQPLDHKNLDMDVPYFADVVSTTENVAVYIWDNLQKVLPVGVLYKVKVYETDNNIVVYKGE [PTS]	-0.38

Let's switch to this sequence now.
So for MTEQAISFAKDFLAGGIAAAISKTAVAPIERVKLLLQVQHASKQIAADKQYKGIVDCIVRIPKEQGVLSFWRGNLANVIRYFPTQALNFAFKDKYKQIFLGGVDKHTQFWRYFAGNLASGGAAGATSLCFVYPLDFARTRLAADVGKSGTEREFRGLGDCLVKITKSDGIRGLYQGFSVSVQGIIIYRAAYFGVYDTAKGMLPDPKNTHIVVSWMIAQTVTAVAGVVSYPFDTVRRRMMMQSGRKGADIMYTGTVDCWRKIFRDEGGKAFFKGAWSNVLRGMGGAFVLVLYDELKKVI [SLC25A6] , the logged thermal stability score turned out to be -0.865

====

- Tested on: HeLa Kyoto
- assay.remarks: solubility change mitosis vs G1/S (difference of NP-40 vs SDS log2 ratios) (log2 ratio difference); higher = more soluble in mitosis
Below: a set of entries, each annotated with reported solubility change mitosis (log2).

entry.sequence	solubility change mitosis (log2)
MGEPSREEYKIQSFDAETQQLLKTALKDPGAVDLEKVANVIVDHSLQDCVFSKEAGRMCYAIIQAESKQAGQSVFRRGLLNRLQQEYQAREQLRARSLQGWVCYVTFICNIFDYLRVNNMPMMALVNPVYDCLFRLAQPDSLSKEEEVDCLVLQLHRVGEQLEKMNGQRMDELFVLIRDGFLLPTGLSSLAQLLLLEIIEFRAAGWKTTPAAHKYYYSEVSD [MIF4GD]	0.238

Summary line: MAAVKDSCGKGEMATGNGRRLHLGIPEAVFVEDVDSFMKQPGNETADTVLKKLDEQYQKYKFMELNLAQKKRRLKGQIPEIKQTLEILKYMQKKKESTNSMETRFLLADNLYCKASVPPTDKVCLWLGANVMLEYDIDEAQALLEKNLSTATKNLDSLEEDLDFLRDQFTTTEVNMARVYNWDVKRRNKDDSTKNKA [VBP1] , HeLa Kyoto, reported solubility change mitosis (log2) = 0.513

Summary line: MAEPLQPDPGAAEDAAAQAVETPGWKAPEDAGPQPGSYEIRHYGPAKWVSTSVESMDWDSAIQTGFTKLNSYIQGKNEKEMKIKMTAPVTSYVEPGSGPFSESTITISLYIPSEQQFDPPRPLESDVFIEDRAEMTVFVRSFDGFSSAQKNQEQLLTLASILREDGKVFDEKVYYTAGYNSPVKLLNRNNEVWLIQKNEPTKENE [HEBP2] , HeLa Kyoto, reported solubility change mitosis (log2) = -0.0442

Summary line: MDSSSSSSAAGLGAVDPQLQHFIEVETQKQRFQQLVHQMTELCWEKCMDKPGPKLDSRAEACFVNCVERFIDTSQFILNRLEQTQKSKPVFSESLSD [TIMM8A] , HeLa Kyoto, reported solubility change mitosis (log2) = 0.392
